These entries and their values trace back to patent US5686486A.

target: UniProtKB P04585; experiment: biochemical; conditions: HIV-1 FITC KI
pKi: −log10 of the molar value.
ENDPOINT NAME: pKi

molecule="CCC(c1cccc(NS(=O)(=O)CCN2C(=O)c3ccccc3C2=O)c1)c1c(O)c2ccccc2oc1=O (stereo not shown)" endpoint_name=pKi measured_number=6.30
molecule="CCC(c1ccccc1)c1c(O)c2ccc(OCCOCCOCCOC)cc2oc1=O (stereo not shown)" endpoint_name=pKi measured_number=6.28
molecule="O=C(CCn1ccc2ccccc21)Nc1cccc(C(c2c(O)c3ccccc3oc2=O)C2CC2)c1 (stereo not shown)" endpoint_name=pKi measured_number=6.87
molecule="COc1ccc2c(O)c(C(c3cccc(NC(=O)CCNC(=O)OC(C)(C)C)c3)C3CC3)c(=O)oc2c1 (stereo not shown)" endpoint_name=pKi measured_number=7.55
